organism: Canis familiaris; assay: Ability to block B-HT 920-induced contraction in canine saphenous vein.; assay type: functional; conditions: Canis lupus familiaris
// NB: equality with 40 nM counts as false; only Kb strictly below is true

1. CC(C)=CCOc1ccc(Cl)c2c1CCN(C)CC2: false
2. C=Cc1sc2ccc(Cl)c3c2c1CN(C)CC3: true
3. CCc1sc2ccc(Cl)c3c2c1CN(C)CC3: false
4. CN1CCc2cccc(Cl)c2CC1: false

====

assay: Effective dose for on contraction of rabbit aorta.; type: functional, tissue-based
Quantity name: EC50 (µM)

1) NCC(O)c1ccc(O)c(O)c1 (single isomer, unassigned) [NOREPINEPHRINE]: 2

====

target: Beta-1 adrenergic receptor (Cavia porcellus); test: Effective dose required to stimulate contractions in isolated guinea pig atrium.
Sequence (B0FL73 whole entry): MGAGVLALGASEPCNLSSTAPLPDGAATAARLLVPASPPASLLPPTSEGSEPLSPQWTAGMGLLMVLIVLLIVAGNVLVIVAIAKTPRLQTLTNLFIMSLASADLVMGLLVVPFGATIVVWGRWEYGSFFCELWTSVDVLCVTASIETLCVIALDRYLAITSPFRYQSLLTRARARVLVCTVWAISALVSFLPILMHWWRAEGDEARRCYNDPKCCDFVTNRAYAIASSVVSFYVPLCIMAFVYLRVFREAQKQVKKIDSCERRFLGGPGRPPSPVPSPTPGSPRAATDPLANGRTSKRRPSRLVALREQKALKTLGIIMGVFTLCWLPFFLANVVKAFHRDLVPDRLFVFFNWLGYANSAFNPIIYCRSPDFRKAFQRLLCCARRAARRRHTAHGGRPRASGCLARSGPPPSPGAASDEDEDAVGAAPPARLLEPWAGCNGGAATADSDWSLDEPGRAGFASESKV
pEC50: −log10 of the molar value.
# reported pEC50; entries follow
Quantity name: pEC50

1) CNC[C@H](O)c1ccc(O)c(O)c1 (stereo in doubt; (+)) [EPINEPHRINE]: 6.36
2) CNC[C@H](O)c1ccc(O)c(O)c1 (stereo in doubt; (-)) [EPINEPHRINE]: 7.82

====

biological target: Beta-2 adrenergic receptor (Cavia porcellus, UniProt Q8K4Z4); assay: Activity for Beta-2 adrenergic receptor was assessed from effect on relaxation of guinea pig trachea.; type: functional
Sequence (Q8K4Z4 whole entry): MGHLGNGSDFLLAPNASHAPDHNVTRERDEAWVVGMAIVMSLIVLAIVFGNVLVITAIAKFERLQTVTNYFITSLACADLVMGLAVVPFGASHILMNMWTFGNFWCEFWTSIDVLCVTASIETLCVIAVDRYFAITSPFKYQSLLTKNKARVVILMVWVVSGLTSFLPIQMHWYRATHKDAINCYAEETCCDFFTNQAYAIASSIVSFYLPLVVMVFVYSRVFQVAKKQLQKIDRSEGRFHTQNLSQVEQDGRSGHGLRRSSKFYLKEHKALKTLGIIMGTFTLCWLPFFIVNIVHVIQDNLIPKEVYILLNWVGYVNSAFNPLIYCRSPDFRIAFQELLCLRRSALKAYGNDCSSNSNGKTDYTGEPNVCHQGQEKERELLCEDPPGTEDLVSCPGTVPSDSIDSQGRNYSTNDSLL
pEC50: −log10 of the molar value.
# reported pEC50; entries follow
Quantity name: pEC50

1. NCC(O)c1ccc(O)c(O)c1 (single isomer, unassigned) [NOREPINEPHRINE]: 4.52
2. NC[C@H](O)c1ccc(O)c(O)c1 [NOREPINEPHRINE]: 6.67

====

Target: Alpha-2B adrenergic receptor (Homo sapiens)
Sequence (P18089 whole entry): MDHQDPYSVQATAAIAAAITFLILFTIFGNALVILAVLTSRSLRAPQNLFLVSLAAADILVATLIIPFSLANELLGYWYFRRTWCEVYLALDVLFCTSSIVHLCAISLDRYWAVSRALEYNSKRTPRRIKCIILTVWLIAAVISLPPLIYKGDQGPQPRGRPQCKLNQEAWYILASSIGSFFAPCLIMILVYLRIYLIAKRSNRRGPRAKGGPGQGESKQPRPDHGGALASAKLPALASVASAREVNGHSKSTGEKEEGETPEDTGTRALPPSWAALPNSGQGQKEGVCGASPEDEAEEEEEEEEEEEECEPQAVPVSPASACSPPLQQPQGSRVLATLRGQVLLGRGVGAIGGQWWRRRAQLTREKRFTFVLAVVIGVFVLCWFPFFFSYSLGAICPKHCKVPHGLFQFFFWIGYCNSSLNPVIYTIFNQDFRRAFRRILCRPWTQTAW
# reported Ki; entries follow
Quantity name: Ki (nM)

1) CN1CCc2cccc(Cl)c2CC1: 16
2) CN1CCc2c(Cl)ccc3oc(Br)c(c23)C1: 14
3) CCc1sc2ccc(Cl)c3c2c1CN(C)CC3: 15
4) C=Cc1sc2ccc(Cl)c3c2c1CN(C)CC3: 3.4

====

species: Cavia porcellus; assay: Ability to block B-HT 920-induced inhibition of inotropic response to field stimulation in superfused guinea pig atrium; assay type: functional; settings: Cardiac atrium
Quantity name: Kb

1) CN1CCc2c(Cl)ccc3oc(Br)c(c23)C1: > 3000 nM
2) CC(C)=CCOc1ccc(Cl)c2c1CCN(C)CC2: > 3000 nM
3) C=Cc1sc2ccc(Cl)c3c2c1CN(C)CC3: > 3000 nM
4) CN1CCc2cccc(Cl)c2CC1: 17 nM
5) CCc1sc2ccc(Cl)c3c2c1CN(C)CC3: > 3000 nM
